# System: gastric acid secretion
# assay info: Inhibition of pentagastrin-stimulated gastric acid secretion in conscious gastric fistula dogs (intraduodenal administration)
# Type: in vivo
# assay context: Canis lupus familiaris, dose 2 μmol/kg, read-out: Effect, % inhibition (peak inhibitory effect on gastric acid secretion)
For each of the molecules below, state its inhibition in vivo at 2 µmol/kg.
Give just the number in %; leave the unit off.

query: What value of inhibition in vivo at 2 µmol/kg has been recorded for this entry: COc1ccnc(C[S+]([O-])c2nc3cc(C(C)=O)c(C)cc3[nH]2)c1 (stereo not drawn)
result: 95

query: For COc1ccnc(C[S+]([O-])c2nc3c(C)cc(C)cc3[nH]2)c1 (stereo not drawn) then?
result: 40

query: For CC(=O)c1cc2nc([S+]([O-])Cc3ncc(C)cc3C)[nH]c2cc1C (stereo not drawn) then?
result: 100

query: For COC(=O)c1cc2nc([S+]([O-])Cc3ncc(C)cc3C)[nH]c2cc1C (stereo not drawn) then?
result: 70

query: For COC(=O)c1ccc2[nH]c([S+]([O-])Cc3ncc(C)cc3C)nc2c1 (stereo not drawn) then?
result: 60

query: For COC(=O)c1cc2nc([S+]([O-])Cc3cc(OC)ccn3)[nH]c2cc1C (stereo not drawn) then?
result: 100

query: For COC(=O)c1cc2nc([S+]([O-])Cc3nccc(C)c3C)[nH]c2cc1C (stereo not drawn) then?
result: 90

query: For COC(=O)c1cc2nc([S+]([O-])Cc3cc(C)c(C)cn3)[nH]c2cc1C (stereo not drawn) then?
result: 60

query: For CC(=O)c1cc2nc([S+]([O-])Cc3cc(C)c(C)cn3)[nH]c2cc1C (stereo not drawn) then?
result: 90

Reference source for all entries: patent US4255431A
